# testedSystem: Scavenger receptor class B member 1 (Mus musculus)
# testDetails: SR-BI-mediated DiI-HDL uptake inhibitors, dose response, ldlA[mSR-BI] CHO cells, powder samples, set 4 (AID 588548)
# details: DiI-HDL uptake fluorescence, 3 h
Examples of compounds with documented AC50 follow.

{"columns": ["compound", "measuredMetric", "endpointValue"],
 "data": [
  ["COc1cc(OC)cc(C(=O)Nc2nc(-c3ccc4[nH]ccc4c3)cs2)c1", "AC50", "50.5 nM"],
  ["CCC(=O)N1CCc2cc(-c3csc(NC(=O)c4cc(OC)cc(OC)c4)n3)ccc21", "AC50", "29.5 nM"],
  ["CCCCCCC1CCC/C1=N\\NC(N)=S (stereo not given)", "AC50", "< 15 nM"]
]}

Read the entry CC(C)(C)OC(=O)N1CCc2cc(-c3noc(NC(=O)c4ccco4)n3)ccc21 and write its reported AC50.
14600 nM

Read the entry O=C(CN(C(=O)Cn1nnc(-c2ccc3c(c2)OC(F)(F)O3)n1)C1CCCCC1)NC1CCCC1 and write its reported AC50.
26 nM

Read the entry CCC(=O)N1CCc2cc(-c3csc(NC(=O)c4ccco4)n3)ccc21 and write its reported AC50.
28.6 nM

Read the entry COc1ccc(-c2nnn(CC(=O)N(CC(=O)NC3CCCC3)C3CCCCC3)n2)cc1OC and write its reported AC50.
< 15 nM

Read the entry CCC(=O)N1CCc2cc(-c3csc(/N=C(/OC)c4cc(OC)cc(OC)c4)n3)ccc21 and write its reported AC50.
1020 nM

Read the entry O=C(Nc1nc(-c2ccc3c(c2)CCN3)cs1)c1ccco1 and write its reported AC50.
< 15 nM

Read the entry CC(C(=O)NC1CCCC1)N(C(=O)Cn1nnc(-c2ccc3c(c2)OCO3)n1)C1CCOCC1 (stereo not given) and write its reported AC50.
3180 nM
